# credit: PubChem BioAssay AID1259407

Test system: CCRIS mutagenicity, Ames/micronucleus/aberration tests
Assay: CCRIS mutagenicity studies
Details: Test System: AMES SALMONELLA TYPHIMURIUM; Strain/Indicator: TA100; Metabolic Activation: RAT, LIVER, S-9, AROCLOR 1254; Method: STANDARD PLATE
Activity calls are given as the source filed them. No rule for the calls is given here.
Outcome codes: True = active, False = inactive

ClC1=C(Cl)[C@]2(Cl)[C@H]3[C@H]([C@@H]4C=C[C@H]3C4)[C@@]1(Cl)C2(Cl)Cl	False
COC(=O)[C@H]1O[C@@H]1c1ccccc1	False
CC(C)(C)NCC(O)COc1cccc2c1CCCC2=O (stereo unspecified)	False
COc1cc(C=O)ccc1O	False
Cc1cc(C(C)(C)C)c(O)c(C(C)(C)C)c1	False
COc1cc(-c2oc3cc(O)cc(O)c3c(=O)c2O)ccc1O	False
CC(C)C[C@H]1C(=O)N2CCC[C@H]2[C@]2(O)O[C@](NC(=O)[C@@H]3C[C@@H]4c5cccc6[nH]cc(c56)C[C@H]4N(C)C3)(C(C)C)C(=O)N12	False
Cc1c2cc(CO)ccc2nc2c3c(ccc12)[C@H](O)[C@@H](O)C=C3	True
COc1ccc(C(=O)n2ncc(Cl)c(Cl)c2=O)cc1	False
CCCCCC(=O)O[C@]1(C(C)=O)CC[C@H]2[C@@H]3CCC4=CC(=O)CC[C@@H]4[C@H]3CC[C@@]21C	False
Nc1ccc2cc3ccc(N)cc3nc2c1	True
O=C(O)CCCc1c[nH]c2ccccc12	False
CC(=O)Nc1ccc(C(=O)/C=C/c2ccccc2)cc1	False
Clc1nnc(Cl)c2ccccc12	False
Oc1ccc(ON2P(Oc3ccc(O)cc3)N=P(Oc3ccc(O)cc3)(Oc3ccc(O)cc3)N(Oc3ccc(O)cc3)P2Oc2ccc(O)cc2)cc1 (stereo unspecified)	False
CCCCC/C=C/C=C/C=O	False
Cc1ccc2c(c1Nc1ccccc1)C(=O)c1ccccc1C2=O	True
Oc1ccc2c(c1)OCO2	False
c1ccc2c3c(ccc2c1)-c1cccc2cccc-3c12	True
CN(C)C=O	False
Cc1cc(=O)c2c(O)c3c(O)cc(O)c4c5c(O)cc(O)c6c(O)c7c(=O)cc(C)c8c1c2c(c34)c(c65)c78	False
CN(C)c1ccc(C(=C2C=CC(=[N+](C)C)C=C2)c2c(O)c(S(=O)(=O)[O-])cc3cc(S(=O)(=O)O)ccc23)cc1	False
C=C(C)C1C=C2C(COC(=O)CCCCCCCCCCCCCCCCC)=CC=C2C(C)=CC1 (stereo unspecified)	True
c1cnccn1	False
CC(=O)n1ncc(Cl)c(Cl)c1=O	False
O=c1ccc2cc3ccoc3cc2o1	False
O=C1c2ccccc2-c2ccc3ccccc3c21	False
C=C(Cl)CSC(=S)N(CC)CC	True
O=c1[nH]c2ccccc2o1	False
C=CC(=O)O	False
Cc1ccc2nc3c4c(ccc3c(C)c2c1)[C@H](O)[C@@H](O)C=C4	True
COc1ccc([C@@H]2CC(=O)c3c(O)cc(O[C@@H]4O[C@H](CO[C@@H]5O[C@@H](C)[C@H](O)[C@@H](O)[C@H]5O)[C@@H](O)[C@H](O)[C@H]4O)cc3O2)cc1O	False
CC/C(=C(\c1ccccc1)c1ccc(OCCN(C)C)cc1)c1ccccc1	False
COC(=O)C(C)(C)Oc1ccc(-c2ccc(Cl)cc2)cc1	False
Oc1cc(Cl)c(Cl)cc1Cl	False
O=C(O)/C=C/c1ccccc1[N+](=O)[O-]	False
CC1=CC(=O)CC(C)(C)C1	False
COc1cc(N=Nc2ccccc2)ccc1N=Nc1c(S(=O)(=O)O)cc2ccc(N)cc2c1O	True
O=C(/C=C/c1ccc(O)cc1)c1ccccc1	False
C[C@]12CC[C@H](OC(=O)/C=C/c3cccc(N(CCCl)CCCl)c3)CC1=CC[C@@H]1[C@@H]2CC[C@]2(C)NC(=O)CC[C@@H]12	False
CC1(C)C(C=C(Cl)Cl)C1C(=O)OCc1cccc(Oc2ccccc2)c1 (stereo unspecified)	False
CC(F)(F)F	False
OC/C=C/c1ccccc1	False
O=C(O)c1cc2c(c3c1c([N+](=O)[O-])cc1c(O)cccc13)OCO2	False
CCCCCCCC/C=C\CCCCCCCCN (tested in a mixture with another compound)	False
O=C(O)c1ccc([N+](=O)[O-])cc1	False
